Assign pEC50 to each entry below.
- Assay Text: Antiproliferative activity against human A549 cells measured after 72 hrs by WST1 assay
- Type: functional, cell-based
- Measurement Conditions: A549, 72 h
pEC50: −log10 of the molar value.

q: // returns reported pEC50 for input "CCCCNC(=O)Nc1ccc(/C(N)=N/O)cc1"
a: < 3.00

q: Find the recorded pEC50 belonging to "CCCCCCNCCC(=O)Nc1ccc(/C(N)=N/O)cc1" and report it.
a: < 3.00

q: Which pEC50 is listed for "CCCCCCNC(=O)Nc1ccc(/C(N)=N/O)cc1" ?
a: < 3.00

q: Look up pEC50: "N/C(=N\O)c1ccc(NC(=O)NCCc2ccccc2)cc1"
a: 3.33

q: I am curious: what pEC50 value has been reported for "CCCCCCNCCCC(=O)Nc1ccc(/C(N)=N/O)cc1" ?
a: < 3.00

q: If you can, please state the reported pEC50 value of "N/C(=N\O)c1ccc(NC(=O)CNCCc2ccccc2)cc1" .
a: 3.80

q: Return reported pEC50; argument: "CCCCNCC(=O)Nc1ccc(/C(N)=N/O)cc1"
a: 3.40

q: Which pEC50 value belongs to "N/C(=N\O)c1ccc(NC(=O)CCCNCCc2ccccc2)cc1" ?
a: < 3.00

q: If you can, please state the reported pEC50 value of "N/C(=N\O)c1ccc(NC(=O)CCNCCc2ccccc2)cc1" .
a: 3.48

q: What value of pEC50 has been reported for the following compound? "CCCCNCCCC(=O)Nc1ccc(/C(N)=N/O)cc1"
a: < 3.00

q: Look at this compound and give its reported pEC50. "CCCCNCCCCC(=O)Nc1ccc(/C(N)=N/O)cc1"
a: < 3.00

q: I'd like to know its pEC50. The compound in question is "CCCCNCCC(=O)Nc1ccc(/C(N)=N/O)cc1"
a: 3.06

q: // query pEC50 value for entry "CCCCCCNCC(=O)Nc1ccc(/C(N)=N/O)cc1"
a: 3.18

q: For "CCCCCCNCCCCC(=O)Nc1ccc(/C(N)=N/O)cc1" , what is its reported pEC50?
a: < 3.00

q: Dear colleague, I am looking for the recorded pEC50 of the following compound: "N/C(=N\O)c1ccc(NC(=O)CCCCNCCc2ccccc2)cc1"
a: < 3.00

q: Requested field: pEC50. Item: "O=C(NCCc1ccccc1)Nc1ccc(C(=O)NO)cc1"
a: < 3.00
